Data origin: PubChem BioAssay (NCI)

system: SK-MEL-5 melanoma; assay: NCI tumour cell line growth inhibition, 48 h
ASSAY_METRIC: TGI

Please review the following examples before continuing.
1. Cc1ccc2[nH]c3[nH]c(=O)[nH]c(=O)c3c2c1; > 100 µM
2. CC(=O)OC1CCC2(C)C(=CCC3C2CCC2(C)C(C(C)C(=O)O)CCC32)C1 (stereo not given); > 100 µM
3. CC(C)OP(=O)(OC(C)C)/C(=N/N)NNc1ccc([N+](=O)[O-])cc1; > 100 µM

Supply measured TGI of COC(=O)C(Cc1ccccc1I)C1=CCC2(CC1)OCCO2 (stereo not given) in your reply. 34.1 µM

Supply measured TGI of `CN(C)c1ccc(/C=C(\NC(=O)c2ccccc2)C(=O)Nc2ccccc2C(=O)O)cc1` in your reply. > 100 µM
